Provide the reported MIC of each item.
tested on: Mixed Cooling Tower Culture
Output spec: scalar in µg/mL, unitless text.

In: I would be grateful if you could share the reported MIC for CC(=O)Oc1cc(Oc2ccc(C(F)(F)F)cc2Cl)ccc1[N+](=O)[O-] [4C comparative] .
Out: 0.25

In: I would be grateful if you could share the reported MIC for CCOC(=O)COC(=O)c1cc(Oc2ccc(C(F)(F)F)cc2Cl)ccc1[N+](=O)[O-] [4F comparative] .
Out: 1

In: I would be grateful if you could share the reported MIC for O=[N+]([O-])c1ccc(Oc2ccc(C(F)(F)F)cc2Cl)cc1O [4D comparative] .
Out: 0.06

In: I would be grateful if you could share the reported MIC for Oc1cccc(Oc2ccc(C(F)(F)F)cc2Cl)c1 [4A comparative] .
Out: 1.6

In: I would be grateful if you could share the reported MIC for O=C(O)c1cc(Oc2ccc(C(F)(F)F)cc2Cl)ccc1[N+](=O)[O-] [4E comparative] .
Out: 12.5

In: I would be grateful if you could share the reported MIC for CC(=O)Oc1cccc(Oc2ccc(C(F)(F)F)cc2Cl)c1 [4B comparative] .
Out: 8

In: I would be grateful if you could share the reported MIC for CCOC(=O)C(C)Oc1cc(Oc2ccc(C(F)(F)F)cc2Cl)ccc1[N+](=O)[O-] (centres unmarked) [Compound 4G] .
Out: 0.25
